Sourced from paper PMC7158045

# assayed.system: ZmDRIK1-K217-S514 (Zea mays)
# Construct: kinase domain, K217-S514
# Sequence (C0P4K9 1-514): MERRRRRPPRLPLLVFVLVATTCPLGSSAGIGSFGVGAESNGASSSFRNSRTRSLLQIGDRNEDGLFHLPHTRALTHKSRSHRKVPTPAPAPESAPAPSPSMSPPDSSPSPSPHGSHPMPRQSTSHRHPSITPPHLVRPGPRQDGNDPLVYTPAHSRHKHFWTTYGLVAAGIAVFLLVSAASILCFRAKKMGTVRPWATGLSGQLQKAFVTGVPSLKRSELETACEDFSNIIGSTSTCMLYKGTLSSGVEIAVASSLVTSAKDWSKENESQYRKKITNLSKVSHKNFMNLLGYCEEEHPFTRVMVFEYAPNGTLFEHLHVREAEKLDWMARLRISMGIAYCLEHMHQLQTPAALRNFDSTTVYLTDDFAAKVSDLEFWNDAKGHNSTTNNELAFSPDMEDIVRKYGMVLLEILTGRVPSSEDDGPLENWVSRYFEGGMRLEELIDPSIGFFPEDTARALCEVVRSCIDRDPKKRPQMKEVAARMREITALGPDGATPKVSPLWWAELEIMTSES
# assay.method.text: biochemical
# experimental.conditions: read-out: dTm B, sheet ZmDRIK1-K217-S514;; DSF, Boltzmann fit, 0.1% DMSO
Each entry falls into one class according to its ΔTm at 10 µM; the ranges are low (below -0.6 °C), moderate (-0.6 °C to below -0.3 °C), high (-0.3 °C or more)

| compound | label.value |
| --- | --- |
| Nc1ncnc2c1c(-c1cnc3[nH]ccc3c1)nn2C1CCCC1 | moderate |
| O=C(NCCCNc1nc(Nc2cccc(NC(=O)N3CCCC3)c2)ncc1I)c1cccs1 | low |
| Nc1nc(N)c2nc(-c3cccc(O)c3)c(-c3cccc(O)c3)nc2n1 | moderate |
| CC1=C(C(=O)Nc2cc3cn[nH]c3cc2F)C(c2ccc(C(F)(F)F)cc2)CC(=O)N1 (centres unmarked) [GSK429286A] | moderate |
| CC1(COc2ccc3c(c2)ncn3-c2ccc3cccc(N4CCC(N)CC4)c3n2)COC1 | high |
| Cc1ccc(NC(=O)c2cccc(C(C)(C)C#N)c2)cc1Nc1ccc2ncn(C)c(=O)c2c1 | moderate |
| COc1cc2ncnc(Nc3cccc(Cl)c3)c2cc1OC | moderate |
| Cc1c(Cn2c(C)nc3c(C(=O)O)cc(N4CCOCC4)cc32)cccc1C(F)(F)F | low |
| CCCCOc1c(C(=O)c2c(F)cc(C)cc2F)c[nH]c2nncc1-2 | high |
| COc1cc2/c(=N/c3ccc(Br)cc3F)nc[nH]c2cc1OCC1CCN(C)CC1 [Vandetanib (ZD6474)] | high |
| C[C@@H]1COC(Nc2ccc3ncnc(Nc4ccc(OCc5nccs5)c(Cl)c4)c3c2)=N1 | moderate |
| Cc1ccc(-c2nn(C(C)(C)C)c3ncnc(N)c23)cc1 | high |
| NC(=O)c1ncn([C@@H]2O[C@H](CO)[C@@H](O)[C@H]2O)c1N | moderate |
| CNc1nc(Nc2cnn([C@H]3CCN(C4COC4)C[C@@H]3F)c2Cl)ncc1C(F)(F)F | low |
| Cc1ncc(-c2ccnc(Nc3ccc(S(C)(=O)=O)cc3)n2)n1C(C)C | moderate |
| CO[C@H]1C[C@@H]2CC[C@@H](C)[C@@](O)(O2)C(=O)C(=O)N2CCCC[C@H]2C(=O)O[C@H]([C@H](C)C[C@@H]2CC[C@@H](O)[C@H](OC)C2)CC(=O)[C@H](C)/C=C(\C)[C@@H](O)[C@@H](OC)C(=O)[C@H](C)C[C@H](C)/C=C/C=C/C=C/1C [Rapamycin (Sirolimus)] | moderate |
| CS(=O)(=O)N1CCc2c(-c3cnc(N)nc3)nc(N3CCOCC3)nc21 | moderate |
| C=CC(=O)Nc1ccc2ncnc(Nc3cccc(Br)c3)c2c1 | high |
| CCOc1cc(N2CCC(O)CC2)ccc1Nc1ncc2c(n1)N(C)c1ccccc1C(=O)N2C | low |
| CN([C@@H](Cc1ccc(OS(=O)(=O)c2cccc3cnccc23)cc1)C(=O)N1CCN(c2ccccc2)CC1)S(=O)(=O)c1cccc2cnccc12 | low |
| Cc1cc(CN2CCN(c3c(Br)cnc4nc(-c5ccc(N6CCN(C)CC6)cc5)[nH]c34)CC2)no1 | high |
| CNC(=O)CN1CCC(Oc2cc3c(Nc4cccc(Cl)c4F)ncnc3cc2OC)CC1 [AZD8931 (Sapitinib)] | moderate |
| Cc1cc([C@@H](C)Nc2ccccc2C(=O)O)c2nc(N3CCOCC3)cc(=O)n2c1 | high |
| Nc1ncnc2c1c(-c1cccc(OCc3ccccc3)c1)cn2[C@H]1C[C@@H](CN2CCC2)C1 | moderate |
| COc1cc2ncnc(Nc3ccc(Cl)cc3F)c2cc1OC | moderate |
| Nc1ncnc2c1c(-c1cccc(OCc3ccccc3)c1)cn2C1CC(CN2CCCC2)C1 (stereo in doubt) | low |
| Cc1cc(N2CCOCC2)cc2[nH]c(-c3c(NC[C@@H](O)c4cccc(Cl)c4)cc[nH]c3=O)nc12 | low |

* * *

# assayed.system: ZmDRIK1-K217-P492 (Zea mays)
# Construct: kinase domain, K217-P492
# assay.method.text: biochemical
# experimental.conditions: read-out: dTm B, sheet ZmDRIK1-K217-P492;; DSF, Boltzmann fit, 0.1% DMSO

| molecule | endpoint.unit | ΔTm at 10 µM |
| --- | --- | --- |
| CS(=O)(=O)N1CCc2c(-c3cnc(N)nc3)nc(N3CCOCC3)nc21 [CH5132799] | °C | -0.608 |
| CNc1nc(Nc2cn(C(C)(C)C#N)nc2C)ncc1C(F)(F)F [GNE-0877] | °C | -0.848 |
| NC(=O)c1ncn([C@@H]2O[C@H](CO)[C@@H](O)[C@H]2O)c1N [Acadesine] | °C | -0.691 |
| CCN1/C(=C/C(C)=O)Sc2ccc(OC)cc21 [TG003] | °C | -1.11 |
| O=C(NOCC1CC1)c1ccc(F)c(F)c1Nc1ccc(I)cc1Cl [PD184352 (CI-1040)] | °C | -1.2 |
| COc1cc2c(Oc3ccc4[nH]c(C)cc4c3F)ncnc2cc1OCCCN1CCCC1 [Cediranib (AZD2171)] | °C | -1.09 |
| N#CC(=C(/N)Sc1ccccc1N)/C(C#N)=C(\N)Sc1ccccc1N [U0126-EtOH] | °C | -1.09 |
| Cc1ccc(C(=O)Nc2cccc(C(F)(F)F)c2)cc1Nc1nc(-c2cccnc2)nc2c1cnn2C [NVP-BHG712] | °C | -0.914 |
| O=C(O)[C@]1(Cc2cccc(Nc3nccs3)n2)CC[C@@H](Oc2cccc(Cl)c2F)CC1 [MK-5108 (VX-689)] | °C | -0.754 |

* * *

# assayed.system: ZmDRIK1-R187-P492 (Zea mays, UniProt C0P4K9)
# Construct: kinase domain, R187-P492
# assay.method.text: biochemical
# experimental.conditions: read-out: dTm B, DSF, Boltzmann fit, 0.1% DMSO

| molecule | assayed.system | ΔTm at 10 µM (°C) |
| --- | --- | --- |
| O=C1NCCc2[nH]c(-c3ccncc3)cc21 | ZmDRIK1-R187-P492 (Zea mays, UniProt C0P4K9) | -0.213 |
| COc1cccc(-c2cc(=O)c3ccccc3o2)c1N | ZmDRIK1-R187-P492 (Zea mays, UniProt C0P4K9) | -0.0775 |
| COc1cc(Nc2c(C#N)cnc3cc(OCCCN4CCN(C)CC4)c(OC)cc23)c(Cl)cc1Cl [Bosutinib (SKI-606)] | ZmDRIK1-R187-P492 (Zea mays, UniProt C0P4K9) | -0.491 |
| O=C(NOCC1CC1)c1ccc(F)c(F)c1Nc1ccc(I)cc1Cl | ZmDRIK1-R187-P492 (Zea mays, UniProt C0P4K9) | -0.348 |
| COc1cc(Nc2ncc(F)c(Nc3ccc4c(n3)N(COP(=O)(O)O)C(=O)C(C)(C)O4)n2)cc(OC)c1OC [Fostamatinib (R788)] | ZmDRIK1-R187-P492 (Zea mays, UniProt C0P4K9) | -0.222 |
| Cn1cnc2c(F)c(Nc3ccc(Br)cc3Cl)c(C(=O)NOCCO)cc21 | ZmDRIK1-R187-P492 (Zea mays, UniProt C0P4K9) | -0.268 |
| COc1ccc2c(Oc3ccc(NC(=O)c4c(C)n(CC(C)(C)O)n(-c5ccccc5)c4=O)nc3)ccnc2c1 | ZmDRIK1-R187-P492 (Zea mays, UniProt C0P4K9) | -0.312 |
| N#Cc1c(O)c2c(-c3ccc(-c4ccccc4O)cc3)csc2[nH]c1=O | ZmDRIK1-R187-P492 (Zea mays, UniProt C0P4K9) | -0.292 |
